// data source = the Immune Epitope Database (IEDB)

- assay system: HLA-B*40:01
- method summary: IEDB peptide-MHC binding, purified MHC/direct/fluorescence; filed as Kd, often an IC50 or EC50 that approximates it; bounds were set here for any values at or beyond the usual limits of such assays
- experimental conditions: source organism: Influenza A virus (A/RI/5-/1957(H2N2))
experimental readout: Kd (nM)

INSERT INTO results (sequence_data, output_unit, value_reported) VALUES
  ('LEKTHNGKL', 'nM', 124);

----------
- assay system: HLA-C*12:03
- method summary: IEDB peptide-MHC binding, purified MHC/direct/fluorescence; filed as Kd, often an IC50 or EC50 that approximates it; bounds were set here for any values at or beyond the usual limits of such assays
- experimental conditions: source organism: Vaccinia virus
pKd: −log10 of the molar value.
experimental readout: pKd

INSERT INTO measurements (sequence_data, assay_system, experimental_readout, value_reported) VALUES
  ('LLYAHINAL', 'HLA-C*12:03', 'pKd', 6.65);
